biological target: mGlyT-1b (Mus musculus, UniProt P28571); construct: host or cells: Flp-in-CHO; experiment: Glycine Uptake Inhibition Assay (mGlyT-1b); assay type: cell-based; conditions: [3H]-glycine uptake in Flp-in-CHO cells stably transfected with mGlyT1b cDNA; 20 min preincubation at 22° C.; read-out: IC50 (μM) at GlyT-1
I'd appreciate it if you marked entries 1 when IC50 is lower than 0.03 µM and -1 when it is not.

- CC(=O)c1ccc(N2CCN(C(=O)c3cc(S(C)(=O)=O)ccc3C3=CCCCCC3)CC2)c(F)c1 [Example 73]: 1
- CC(=O)c1ccc(N2CCN(C(=O)c3cc(S(C)(=O)=O)ccc3-c3ccsc3)CC2)cc1 [Example 127]: -1
- CS(=O)(=O)c1ccc(-c2ccccc2F)c(C(=O)N2CCN(c3ncc(C(F)(F)F)cc3Cl)CC2)c1 [Example 111]: -1
- CS(=O)(=O)c1ccc(-c2cccs2)c(C(=O)N2CCN(c3ccc(C(F)(F)F)cc3)CC2)c1 [Example 52]: -1
- CS(=O)(=O)c1ccc(C2CCCC2)c(C(=O)N2CCN(c3ccc(C(F)(F)F)cc3)CC2)c1 [Example 79]: 1
- CS(=O)(=O)c1ccc(-c2ccncc2)c(C(=O)N2CCN(c3ccc(C(F)(F)F)cc3)CC2)c1 [Example 59]: -1
- Cc1ccc(-c2ccc(S(C)(=O)=O)cc2C(=O)N2CCN(c3ccc(C(F)(F)F)cc3)CC2)s1 [Example 55]: -1

* * *

Molecular target: mGlyT-1b (Mus musculus, UniProt P28571)
Construct: host or cells: Flp-in-CHO
Sequence (P28571 1-651 isoform P28571-2): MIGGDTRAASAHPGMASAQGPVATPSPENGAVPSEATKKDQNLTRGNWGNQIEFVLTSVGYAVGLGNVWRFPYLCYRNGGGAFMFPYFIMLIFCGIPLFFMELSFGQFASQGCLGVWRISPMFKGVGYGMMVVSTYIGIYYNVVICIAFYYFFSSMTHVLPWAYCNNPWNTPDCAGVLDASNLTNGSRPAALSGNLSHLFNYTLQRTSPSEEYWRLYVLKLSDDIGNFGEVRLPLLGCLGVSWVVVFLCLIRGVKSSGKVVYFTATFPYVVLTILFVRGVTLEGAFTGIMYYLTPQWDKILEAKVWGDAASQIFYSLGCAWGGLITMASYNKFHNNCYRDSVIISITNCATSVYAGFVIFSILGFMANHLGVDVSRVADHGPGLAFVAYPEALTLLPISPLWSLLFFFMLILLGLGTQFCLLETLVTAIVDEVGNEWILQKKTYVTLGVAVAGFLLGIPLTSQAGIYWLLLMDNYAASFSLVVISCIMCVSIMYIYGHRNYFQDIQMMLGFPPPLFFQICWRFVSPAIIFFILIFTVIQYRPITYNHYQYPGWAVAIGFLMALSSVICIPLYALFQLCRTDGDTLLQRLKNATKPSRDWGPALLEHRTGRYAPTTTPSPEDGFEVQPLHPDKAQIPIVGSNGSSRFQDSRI
Test: Glycine Uptake Inhibition Assay (mGlyT-1b)
Assay type: cell-based
Details: [3H]-glycine uptake in Flp-in-CHO cells stably transfected with mGlyT1b cDNA; 20 min preincubation at 22° C.; read-out: IC50 (μM) at GlyT-1
ENDPOINT: IC50 (µM)

• CC(=O)c1ccc(N2CCN(C(=O)c3cc([N+](=O)[O-])ccc3C3CC3)CC2)c(F)c1 = 0.026
• CS(=O)(=O)c1ccc(C2=CCOCC2)c(C(=O)N2CCN(c3ccc(C(F)(F)F)cc3)CC2)c1 = 0.019
• CC(=O)c1ccc(N2CCN(C(=O)c3cc(S(C)(=O)=O)ccc3C3=CCCC3)CC2)c(F)c1 = 0.013
• CS(=O)(=O)c1ccc(-c2ccc(F)cc2)c(C(=O)N2CCN(c3ccc(C(F)(F)F)cc3F)CC2)c1 = 0.01
• CS(=O)(=O)c1ccc(-c2ccccc2)c(C(=O)N2CCN(c3ncc(C(F)(F)F)cc3Cl)CC2)c1 = 0.035
• CNS(=O)(=O)c1ccc(-c2ccccc2)c(C(=O)N2CCN(c3ccc(C(F)(F)F)cc3)CC2)c1 = 0.012
• CS(=O)(=O)c1ccc(-c2ccccc2)c(C(=O)N2CCN(c3ccc(C(F)(F)F)cc3F)CC2)c1 = 0.019
• CC(=O)c1ccc(N2CCN(C(=O)c3cc(S(C)(=O)=O)ccc3C3=CCOCC3)CC2)c(F)c1 = 0.021
• CS(=O)(=O)c1ccc(C2=CCCCC2)c(C(=O)N2CCN(c3ccc(C(F)(F)F)cc3)CC2)c1 = 0.011
• CS(=O)(=O)c1ccc(-c2ccccc2F)c(C(=O)N2CCN(c3ccc(C#N)cc3F)CC2)c1 = 0.039
• CS(=O)(=O)c1ccc(C2=CCOCC2)c(C(=O)N2CCN(c3ccc(C(F)(F)F)cc3F)CC2)c1 = 0.022
• CS(=O)(=O)c1ccc(-c2ccsc2)c(C(=O)N2CCN(c3ccc(C(F)(F)F)cc3)CC2)c1 = 0.006
• COC(=O)c1ccc([N+](=O)[O-])cc1C(=O)N1CCN(c2ccc(C(C)=O)cc2F)CC1 = 0.032
• CC(=O)c1ccc(N2CCN(C(=O)c3cc(S(C)(=O)=O)ccc3C3=CCCCC3)CC2)c(F)c1 = 0.007
• CC(=O)c1ccc(N2CCN(C(=O)c3cc([N+](=O)[O-])ccc3-c3ccccc3)CC2)c(F)c1 = 0.023
• CCc1ccc(N2CCN(C(=O)c3cc(S(C)(=O)=O)ccc3C3CCCCC3)CC2)c(F)c1 = 0.031
• CS(=O)(=O)c1ccc(C2=CCCCCC2)c(C(=O)N2CCN(c3ccc(C(F)(F)F)cc3)CC2)c1 = 0.014
